test system: Plasmodium falciparum; assay: Antimalarial activity against Plasmodium falciparum K1; type: functional, organism-based
Overview of recorded IC50 for various compounds
quantity: IC50 (ng/mL)

{"compound": "CCN(CC)Cc1ccc(C(C)O[C@H]2O[C@@H]3O[C@]4(C)CC[C@H]5[C@H](C)CC[C@@H]([C@H]2C)[C@@]35OO4)cc1O (stereo partly drawn)", "assayed_target": "Plasmodium falciparum", "result": 0.18}
{"compound": "C[C@@H]1CC[C@H]2[C@@H](CCCc3cc(F)cc(F)c3)C(=O)O[C@@H]3O[C@]4(C)CC[C@@H]1[C@]32OO4", "assayed_target": "Plasmodium falciparum", "result": 3.2}
{"compound": "C[C@H]1[C@H](OC(=O)CCC(=O)O)O[C@@H]2O[C@@]3(C)CC[C@H]4[C@H](C)CC[C@@H]1[C@@]24OO3 [ARTESUNATE]", "assayed_target": "Plasmodium falciparum", "result": 1.2}

Where do these numbers come from? They come from ChEMBL document CHEMBL5244272.
